B1: glmS ribozyme (parent)
chain: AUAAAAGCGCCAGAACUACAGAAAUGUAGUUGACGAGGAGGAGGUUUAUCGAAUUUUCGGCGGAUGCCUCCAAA

- Variants of: B1
- ASSAY_DETAILS: self-cleavage kobs at 640 uM GlcN6P; higher = faster cleavage; RNA array
- DETAILS: with glucosamine-6-phosphate
Variants at the floor of the assay were thinned out.
Answer 0.0 if self-cleavage kobs at 640 uM GlcN6P is under 0.0005 s⁻¹, and 1.0 if it is 0.0005 s⁻¹ or more.

[[record]]
seq = "AUAAAAGCGCCAUAACUACAGAAAUGUAGUUGACGAGGGGGAGGUUUAUCGAAUGUUCGGCGGAUGCCUCCAAA [G13U A39G U55G]"
qualitative_label = 0.0

[[record]]
seq = "AUAAAAGCGCCUGAACUACAGAAAUGUAGUUGACGAGGAGGAGGUUUGUCGAAUUUUCGGCGGAUGCCUCCAAA [A12U A48G]"
qualitative_label = 0.0

[[record]]
seq = "AUAAAAGCGCCAGAACUACAGAAAUGUAGUUGACGAGGAGGAGGUUGAUCGAAUUUUCGGCGGAUGCCUCAAAA [U47G C71A]"
qualitative_label = 0.0

[[record]]
seq = "AUAAAAGCGACAGAACUACAGAAAUGUAGUUGACGAGGAGGAGGUUUAUCGAAUUUUCGGCGGAUGCCUCGAAA [C10A C71G]"
qualitative_label = 0.0

[[record]]
seq = "AUAAAAGCGCCAGUACUACAGAAAUGUAGUUGACGAGGAGGAGGUUUAUCUAAUUUUCGGCGGAUGCCUCCAAA [A14U G51U]"
qualitative_label = 0.0

[[record]]
seq = "AUAAACGCGCCAGAACUACAGAAAUGUAGUUGACGAGGGGGAGGUUUAUCGAAUUUGCGGCGGAUGCCUCCAAA [A6C A39G U57G]"
qualitative_label = 0.0

[[record]]
seq = "AUAAAAGCGCCAGAACUACAGAAAUUUAGUUGACGAGGAGGAGGUUUAUGGCAUUGUCGGCGGAUCUCUCUAAA [G26U C50G A52C U56G G66C C67U C71U]"
qualitative_label = 1.0

[[record]]
seq = "AUAAAAGCGCCAGAACUACAGAAAUGUAGUUGACGAGGAGGAGGUUAAUCGAAUUGUCGGCGGAUGCCUCCAAA [U47A U56G]"
qualitative_label = 1.0

[[record]]
seq = "AUAAAAGCGCCAGAGCUACAGAAAUGUAGUUGACGAGGAGGAGGUUGAUCGAAUAUUCGGCGGAUGCCUCCAAA [A15G U47G U55A]"
qualitative_label = 1.0

[[record]]
seq = "AUAAAAGCGCCAGAACUACAGAAAUGUAGUUGACGAGGAGGAGGUUUACCGAAUUUUCAGCGGAUGGCUCCAAA [U49C G59A C67G]"
qualitative_label = 0.0

[[record]]
seq = "AUAAAAGAGCCAGAUCUACAGAAAUGUAGUUGACGAGGAGGAGGUUUAUCGAAUUUUCGGCGGAUGCCUCCAAA [C8A A15U]"
qualitative_label = 0.0

[[record]]
seq = "AUAAAAGCGCCAGAACUACAGAAAUGUAGUUGACGACGAGGAGUUUUAUCGAAUUUUCGGCGGAUGCCUCCAAA [G37C G44U]"
qualitative_label = 0.0

[[record]]
seq = "AUAAAUGCGCCAGAACUACAGAAAUGUAGUUGACGAGGAGGAGGUUUAUCGAAUUGUCGGCGGAAGACUCCAAA [A6U U56G U65A C67A]"
qualitative_label = 0.0

[[record]]
seq = "AUAAAAGCGCCAGAACUACAGAAAUGUAGUUGACGAGGAGGAGGUCGAUCGAAUUUUCGGCGGAUGCCUCCAAA [U46C U47G]"
qualitative_label = 0.0

[[record]]
seq = "AUAAAAGCGCCAGAACUACAGAAAUGUAGUUGACGAGGAGGAUUUUUAUCGAAUUUUCGGCGGAUGCCUCCAAA [G43U G44U]"
qualitative_label = 0.0

[[record]]
seq = "AUAAAAGCGCCAGAACUACAGAAAUGUAGGUGACGAGGAGGAGGUUUAUCGAAUUUUCGGCGGAUGCCUCUAAA [U30G C71U]"
qualitative_label = 1.0

[[record]]
seq = "AUAAAAGCGCCAGAACUACAGAAAUGUAGUUGACGAGGCGGAGGUUUAUCGAAUUUUCGGCGGAUGCUUCCAAA [A39C C68U]"
qualitative_label = 0.0

[[record]]
seq = "AUAAAAGCGCCAGAACUACAGAAAUGUAGUUGACGAGGAGGAGCUUUAUCGAAUUUUCGGCGGAUGCCUCGAAA [G44C C71G]"
qualitative_label = 0.0

[[record]]
seq = "AUAAAAGCGCCAGAACUACAGAAAUGUAUUUUACGAGAAGGAGGUUUAUCGAAUUUUCGGAGGAUGUCUCCAAA [G29U G32U G38A C61A C67U]"
qualitative_label = 0.0

[[record]]
seq = "AUAAAAGCGCCAGAGCUACAGAAAUGUAGUUGACGAGGAGGAGGUUUAACGAAUUUUAGGCGGAUGCCAUCAAA [A15G U49A C58A U69A C70U]"
qualitative_label = 0.0

[[record]]
seq = "AUAAAAGCGCCAGAACUACAGAAAUGUAGUUCACGAGGAGGAGGUUUAUCGAGUUUUCGGCGGAUGCCUCCAAA [G32C A53G]"
qualitative_label = 0.0

[[record]]
seq = "AUAAAAGCGCCGGAACUACAGAAAUGUAGUUGACGAGGAGGAGGUUUCUCGUAUUUUCGGCGGAUGCCUCCAAA [A12G A48C A52U]"
qualitative_label = 0.0

